Measured protein stability index, listed per entry.
B1: PI4K2A (parent)
chain: FVKDPQGRIIAVFKPKNEEPYGHL

Variants of: B1
Experiment: protein stability index of a GFP-peptide fusion (GPS, HEK-293T) (PSI 1-6); higher = more stable;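 also: lentivirally expressed fusions sorted by FACS into six bins by GFP to DsRed ratio, PSI derived from sequencing read proportions per bin multiplied by bin number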
Details: c terminus: a fixed tail appended
Write the number on its own, no unit after it.

A selection of reference data follows.
{"Mutation Id": "K3C", "protein stability index": 2.7}
{"Mutation Id": "P20S", "protein stability index": 2}
{"Mutation Id": "F13C", "protein stability index": 2.48}
{"Mutation Id": "I9C", "protein stability index": 1.85}

Please look at the following variant next.
Prompt: May I ask what protein stability index has been recorded for Y21M ?
Completion: 1.54
